Let's look at some compounds and their measured melting point.

{"Compound": "CCCC(=O)c1ccc(=O)[nH]c1C", "melting point": "167 to 168 °C"}
{"Compound": "CNC(=O)N(C)C1=NN(C(C)=O)C(C)(C)S1", "melting point": "151 to 154 °C"}
{"Compound": "O=C(O)C1CCC2CCC(=O)N21 (centres undefined)", "melting point": "145 to 148 °C"}

Q: Read the entry O=C(NC1CCCOC1)c1ccc2nonc2c1 (centres undefined) and write its reported melting point.
Ans: 204 to 205 °C

Q: Read the entry O=C(O)c1ccn2c1C(C(=O)O)CCC2 (centres undefined) and write its reported melting point.
Ans: 236 to 237 °C

Q: Read the entry CCOC(=O)c1c(O)c2cc(F)ccc2c(=O)n1CC(C)C and write its reported melting point.
Ans: 91 to 92 °C

Q: Read the entry COc1cc(CNC(=O)c2ccc(Cl)cc2OCC(=O)O)cc(OC)c1 and write its reported melting point.
Ans: 163 °C

Q: Read the entry COc1ccc(C(=O)Nc2ccc(C(=O)O)cc2)cc1C12CC3CC(CC(C3)C1)C2 and write its reported melting point.
Ans: 286 to 287 °C
